pIC50 overview
tested target: HDAC2 (Homo sapiens)
Sequence (Q92769 whole entry): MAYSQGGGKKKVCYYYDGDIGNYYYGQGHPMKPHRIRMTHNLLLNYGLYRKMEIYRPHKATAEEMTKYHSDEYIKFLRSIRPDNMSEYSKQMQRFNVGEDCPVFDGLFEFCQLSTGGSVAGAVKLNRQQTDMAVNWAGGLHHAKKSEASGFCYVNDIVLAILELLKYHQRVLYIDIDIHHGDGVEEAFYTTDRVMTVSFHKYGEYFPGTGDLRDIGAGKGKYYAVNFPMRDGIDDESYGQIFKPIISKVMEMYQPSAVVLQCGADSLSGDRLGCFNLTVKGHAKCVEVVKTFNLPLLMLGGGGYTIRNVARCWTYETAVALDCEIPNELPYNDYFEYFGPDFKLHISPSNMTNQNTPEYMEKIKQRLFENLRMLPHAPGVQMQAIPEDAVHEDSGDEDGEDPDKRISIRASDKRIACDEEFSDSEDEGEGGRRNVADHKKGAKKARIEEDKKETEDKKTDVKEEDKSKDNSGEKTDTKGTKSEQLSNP
experiment summary: In vitro HDAC inhibition assay, HDAC2
condition: NI = No inhibition at a concentration of 50 pM (footnote b); read-out: HDAC isoform IC50, HDAC2
pIC50: −log10 of the molar value.
reported endpoint: pIC50

# molecule, data value
records = [
    ("CCOC(=O)Nc1ccc(-c2cc(C(=O)NCCc3cc(C(=O)NO)no3)no2)cc1 [Compound 8]", 4.38),
    ("CC(C)(C)OC(=O)Nc1ccc(-c2cc(C(=O)NCc3ccc(C(=O)NO)cc3)no2)cc1 [Compound 15]", 5.72),
    ("CC(C)(C)OC(=O)Nc1ccc(-c2cc(C(=O)NCCc3cc(C(=O)NO)no3)no2)cc1 [Compound 6]", 3.91),
    ("O=C(NO)c1ccc(CNC(=O)c2cc(-c3cccc(NC(=O)C4CCCCC4)c3)on2)cc1 [Compound 17]", 5.37),
    ("CC(C)(C)OC(=O)Nc1cccc(-c2cc(C(=O)NCc3ccc(C(=O)NO)cc3)no2)c1 [Compound 14]", 5.86),
    ("Nc1cccc(-c2cc(C(=O)NCCc3cc(C(=O)NO)no3)no2)c1 [Compound 9]", 5.63),
    ("CCOC(=O)Nc1cccc(-c2csc(NC(=O)CCc3cc(C(=O)NO)no3)n2)c1 [Compound 5]", 5.96),
    ("CCOC(=O)Nc1ccc(-c2csc(NC(=O)CCCc3cc(C(=O)NO)no3)n2)cc1 [Compound 4]", 6.08),
    ("O=C(NO)c1ccc(CNC(=O)c2cc(Cn3c4ccccc4c4ccccc43)on2)cc1 [Compound 18]", 5.86),
    ("O=C(Nc1cccc(-c2cc(C(=O)NCCc3cc(C(=O)NO)no3)no2)c1)c1ccccc1 [Compound 12]", 4.98),
    ("CC(C)(C)OC(=O)Nc1ccc(-c2csc(NC(=O)CCCc3cc(C(=O)NO)no3)n2)cc1 [Compound 3]", 5.94),
    ("O=C(CCCc1cc(C(=O)NO)no1)Nc1nc(-c2ccccc2)cs1 [Compound 2]", 5.91),
    ("O=C(CCc1cc(C(=O)NO)no1)Nc1nc(-c2ccccc2)cs1 [Compound 1]", 5.94),
    ("O=C(NO)c1ccc(CNC(=O)c2cc(-c3ccc(NC(=O)C4CCCCC4)cc3)on2)cc1 [Compound 16]", 5.60),
]

Source: patent US11739064B2
